All figures here come from patent US20160039895A1.

experimentalTarget: T1, α5β1 integrin on wild-type K562 cells (UniProt P08648 42-1049; P05556 21-798, limits assumed)
T1 construct: whole, on cells
T1 sequence (P08648 42-1049 limits assumed, chain 1 of 2): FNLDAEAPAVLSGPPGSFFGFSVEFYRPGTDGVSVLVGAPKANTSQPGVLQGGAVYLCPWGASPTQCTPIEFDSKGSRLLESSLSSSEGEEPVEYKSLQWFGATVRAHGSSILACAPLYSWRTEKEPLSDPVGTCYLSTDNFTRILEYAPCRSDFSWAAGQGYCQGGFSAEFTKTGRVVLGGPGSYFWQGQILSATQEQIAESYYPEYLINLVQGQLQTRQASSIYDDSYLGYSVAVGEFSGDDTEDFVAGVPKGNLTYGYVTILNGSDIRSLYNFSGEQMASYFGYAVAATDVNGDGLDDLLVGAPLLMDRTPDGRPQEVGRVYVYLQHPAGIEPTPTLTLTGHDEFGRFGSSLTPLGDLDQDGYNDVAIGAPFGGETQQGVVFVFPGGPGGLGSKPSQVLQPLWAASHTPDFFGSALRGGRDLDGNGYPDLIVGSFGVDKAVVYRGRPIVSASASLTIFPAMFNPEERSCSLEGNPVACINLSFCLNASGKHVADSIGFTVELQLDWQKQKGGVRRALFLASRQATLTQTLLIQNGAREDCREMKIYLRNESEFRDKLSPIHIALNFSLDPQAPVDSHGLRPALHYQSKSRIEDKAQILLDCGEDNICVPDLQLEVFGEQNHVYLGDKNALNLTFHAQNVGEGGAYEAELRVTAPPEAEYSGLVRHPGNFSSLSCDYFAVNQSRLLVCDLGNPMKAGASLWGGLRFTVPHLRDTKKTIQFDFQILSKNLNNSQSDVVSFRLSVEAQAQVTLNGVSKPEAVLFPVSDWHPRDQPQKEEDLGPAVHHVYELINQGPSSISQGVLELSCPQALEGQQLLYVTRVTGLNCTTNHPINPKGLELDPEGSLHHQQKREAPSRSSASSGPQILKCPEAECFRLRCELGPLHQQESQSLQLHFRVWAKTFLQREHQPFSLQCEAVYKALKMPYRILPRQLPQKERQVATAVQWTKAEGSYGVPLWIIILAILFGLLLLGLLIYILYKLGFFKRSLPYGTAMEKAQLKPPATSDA
T1 sequence (P05556 21-798 limits assumed, chain 2 of 2): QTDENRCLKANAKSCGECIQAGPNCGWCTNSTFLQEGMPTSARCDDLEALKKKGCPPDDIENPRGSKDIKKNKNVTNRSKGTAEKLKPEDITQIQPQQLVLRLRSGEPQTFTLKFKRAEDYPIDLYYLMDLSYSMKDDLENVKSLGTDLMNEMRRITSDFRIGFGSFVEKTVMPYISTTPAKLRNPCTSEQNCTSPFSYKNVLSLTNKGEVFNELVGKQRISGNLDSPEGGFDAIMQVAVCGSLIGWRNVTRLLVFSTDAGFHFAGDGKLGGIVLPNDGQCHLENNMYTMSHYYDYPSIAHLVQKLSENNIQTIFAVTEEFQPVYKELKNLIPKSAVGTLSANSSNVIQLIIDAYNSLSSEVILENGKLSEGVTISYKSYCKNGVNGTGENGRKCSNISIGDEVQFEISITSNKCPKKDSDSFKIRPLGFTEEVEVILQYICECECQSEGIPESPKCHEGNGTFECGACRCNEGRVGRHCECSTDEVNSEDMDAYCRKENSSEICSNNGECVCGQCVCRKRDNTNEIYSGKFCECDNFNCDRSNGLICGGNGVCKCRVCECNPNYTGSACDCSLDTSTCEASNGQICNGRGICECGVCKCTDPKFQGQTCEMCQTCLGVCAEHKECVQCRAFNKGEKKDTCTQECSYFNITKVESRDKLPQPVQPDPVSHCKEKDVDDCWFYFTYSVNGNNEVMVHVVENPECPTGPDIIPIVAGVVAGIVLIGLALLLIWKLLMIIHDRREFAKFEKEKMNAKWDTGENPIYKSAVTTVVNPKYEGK
assayText: flow cytometry on wild-type K562 cells
assayReadout: binding result

# binder, result
measured = [
    ("scVEGF-mE (designed binder, Soluble protein with C-terminal hexahistidine tag, with or without N-terminal FLAG tag (tags not included in the parts); also called scVEGFmut-E) EVVKAMDVYQRSYCHPIETLVDILQEYPDEIGYIFKPSCVPLMRCGGCCNGAGLECVPTEESNITMQIMRIKPHRGQHIGEMSFLQHNKCECRPKKDGSTSGSGKSSEGKGEVVRFMDVYQRSYCHPIETLVDIFQEYPNEIEYAFKPSCVPLMRCGGCCNNEGLECVPTEESNITMQIMRAKPHQGQHIGEMSFLQHNKCECRPKKD", "no binding"),
    ("scVEGFrgd-7I (designed binder, Soluble protein from P. pastoris with C-terminal hexahistidine tag, with or without N-terminal FLAG tag; also called scVEGF-7I) EVVKAMDVYQRSYCHPIETLVDIFQEYPDEIEYIFKPSCVPLMRCGGCCNDAGLECVPTEESNITMQIMRIKPHQGQHIGEMSFLQHNKCECRPKKDGSTSGSGKSSEGKGEVVKFMDVYQRSYCHPIETLVDIFQEYPDEIEYAFKPSCVPLMRCGGCCNDEGLECVPTEESNITMQIMRPSVRRGDSPASHIGEMSFLQHNKCECRPKKDTR", "no binding"),
    ("scVEGF-mM (designed binder, Soluble protein with C-terminal hexahistidine tag, with or without N-terminal FLAG tag (tags not included in the parts); also called scVEGFmut-M) EVVKAMDVYRRSYCHPVETSVDILQEYPDEIEYIFKPSCVPLMRCGGCCNDAGLECVPTEESNTTMQIMRIKPYRGQHIGEMSFLQHNKCECRPKKDGSTSGSGKSSEGKGEVVKFMDVYQRSYCHPIETLVDIFQEYPDEIEYAFKPSCVSLMRCGGCCNNEGLECVPTEESNITVQIMGAKPHQGQHIGEMSFLQHNKCECRPKKD", "no binding"),
    ("scVEGFrgd-7H (designed binder, Soluble protein from P. pastoris with C-terminal hexahistidine tag, with or without N-terminal FLAG tag; also called scVEGF-7H) EVVKAMDVYQRSYCHPIETLVDIFQEYPDEIEYIFKPSCVPLMRCGGCCNDAGLECVPTEESNITMQIMRIKPHQGQHIGEMSFLQHNKCECRPKKDGSTSGSGKSSEGKGEVVKFMDVYQRSYCHPIETLVDIFQEYPDEIEYAFKPSCVPLMRCGGCCNDEGLECVPTEESNITMQIMRPGGRGDSAYHIGEMSFLQHNKCECRPKKDTR", "no binding"),
    ("scVEGF-mA (designed binder, Soluble protein from P. pastoris with C-terminal hexahistidine tag, with or without N-terminal FLAG tag (tags not included in the parts); also called scVEGFmut-A) EVAKAMDVYQKSYCHPIETLVDILQEYPDEIGYIFKPSCVPLMRCGGCCNDAGLECVPTEESNITMQIMRIKPYQGQHIGEMSFLQHNKCECRPKKDGSTSGSGKSSEGKGEVVKFMDVYQRSYCHPIETLVDIFQEYPDKIEYAFKPSCVPLMRCGGCCNNEGLECVPTEESNITMQITRAKPHQGQHIGEMSFLQHNKCECRPKKD", "no binding"),
    ("scVEGFrgd-7P (designed binder, Soluble protein from P. pastoris with C-terminal hexahistidine tag, with or without N-terminal FLAG tag; also called scVEGF-7P) EVVKAMDVYQRSYCHPIETLVDIFQEYPDEIEYIFKPSCVPLMRCGGCCNDAGLECVPTEESNITMQIMRIKPHQGQHIGEMSFLQHNKCECRPKKDGSTSGSGKSSEGKGEVVKFMDVYQRSYCHPIETLVDIFQEYPDEIEYAFKPSCVPLMRCGGCCNDEGLECVPTEESNITMQIMRPASRGDSPPHIGEMSFLQHNKCECRPKKDTR", "no binding"),
    ("scVEGF-mJ (designed binder, Soluble protein with C-terminal hexahistidine tag, with or without N-terminal FLAG tag (tags not included in the parts); also called scVEGFmut-J) EIVKARDVYQRSYCHPIETLVDILQEYPDEIEYIFKPSCVPLMRCGGCCNDAGLECVPTEESNITMQIMRIKPYQGHHIGEMSFLQHNKCECRPKKDGSTSGSGKSSEGKGEVVKFMDVYQRSYCHPIETLVDIFQEYPDEIEYAFKPSCVPLMRCGGCCNNEGLECVPTEESNITMQIMRAKPHQGQHTGEMSFLQHNKCECRPKKD", "no binding"),
]
